# assay system: HTRA1, Q92743
# Sequence (Q92743 360-477): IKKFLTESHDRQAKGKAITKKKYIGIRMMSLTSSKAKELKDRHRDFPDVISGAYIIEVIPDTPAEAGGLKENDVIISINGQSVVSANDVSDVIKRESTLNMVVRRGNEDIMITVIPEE
# assay remarks: holdup assay
# Set-up: key: below the threshold = too weak to quantify, mostly under pKd 3.1 to 4
# condition label: plain residues with an end cap or a label only (N-terminal biotin on a linker: ado-ado)
endpoint: pKd

VDSTVKVWTC [TRAF7, Q6Q0C0] :: 5.61
VRNLPESEEL [MYOZ3, Q8TDC0] :: 3.84
SAKVRTVTSV [RASL11B, Q9BPW5] :: 3.95
IPLDGETEEL [MYOZ1, Q9NP98] :: 3.99
